system: U-251; experiment: NCI tumour cell line growth inhibition, 48 h
Activity calls are given as the source filed them. Cut-off read from the data, not from the text of the source: active = GI50 up to about 1.1 µM and inactive = higher.
Parameter call: string, one of active, inactive

Problem: Check the results log: what was the call for `CC(=O)OCCn1c(Cc2ccc(C)cc2)nn(C(C)=O)c1=O` ?
Solution: inactive

Problem: Check the results log: what was the call for `C[N+](C)([O-])CCOc1cc2c(c3ccccc13)-c1ccccc1C2=O` ?
Solution: inactive

Problem: Check the results log: what was the call for `Cc1cc(Cc2c(F)c(F)c(Cc3cc(C)no3)c(F)c2F)on1` ?
Solution: inactive

Problem: Check the results log: what was the call for `CC(C)(C)n1c(=O)[nH]c(=O)n1C(C)(C)C` ?
Solution: inactive

Problem: Check the results log: what was the call for `Cc1ccc(-c2c(C#N)c(-c3ccccc3)n(NS(=O)(=O)c3ccccc3)c(=O)c2C#N)cc1` ?
Solution: inactive

Problem: Check the results log: what was the call for `C=C(Br)COc1ccc2c(C)cc(=O)oc2c1` ?
Solution: inactive

Problem: Check the results log: what was the call for `Cc1csc2c(=O)n(COCc3ccccc3)c(=O)[nH]c12` ?
Solution: inactive

Problem: Check the results log: what was the call for `N#C/N=N/c1cc(Cl)c(/N=N/C#N)cc1Cl` ?
Solution: inactive

Problem: Check the results log: what was the call for `COc1cc2cc(C(=O)N3C[C@H](CCl)c4c3cc(O)c3ccccc43)[nH]c2c(OC)c1OC` ?
Solution: active

Problem: Check the results log: what was the call for `C[C@@H]1[C@@H](c2ccccc2)O[B-](c2ccccc2)(c2ccccc2)[N+]1(C)C` ?
Solution: inactive

Problem: Check the results log: what was the call for `COc1ccc(S(=O)(=O)N/N=C/CN2C(=O)c3ccccc3C2=O)cc1` ?
Solution: inactive
